species on record: Danio rerio; experiment: Toxicity in 24 to 72 hrs post fertilized zebra fish embryo harboring fli1:EGFP; assay type: organism-based; settings: zebrafish, in vivo
Measured Property: MTC (µM)
Provide the reading as a plain figure in µM.

Lab note: measured MTC of O=c1cc(-c2ccccc2)oc2cc(O)c(OCCCO)c(O)c12 was 2.5

Lab note: measured MTC of O=c1cc(-c2ccccc2)oc2cc(O)c(OCC(O)CO)c(O)c12 (stereo not given) was 50

Lab note: measured MTC of CCN(CC)C(=O)COc1c(O)cc2oc(-c3ccccc3)cc(=O)c2c1O was 200

Lab note: measured MTC of O=c1cc(-c2ccccc2)oc2cc(O)c(OCCCCCCO)c(O)c12 was 2.5

Lab note: measured MTC of O=C(COc1c(OCc2ccccc2)cc2oc(-c3ccccc3)cc(=O)c2c1O)N(CCO)CCO was 100

Lab note: measured MTC of O=C(COc1c(OCc2ccccc2)cc2oc(-c3ccccc3)cc(=O)c2c1O)N1CCOCC1 was 50

Lab note: measured MTC of O=c1cc(-c2ccccc2)oc2cc(O)c(OCCCCCO)c(O)c12 was 1

Lab note: measured MTC of O=C(COc1c(OCc2ccccc2)cc2oc(-c3ccccc3)cc(=O)c2c1O)N1CCNCC1 was 25

Lab note: measured MTC of O=C(COc1c(OCc2ccccc2)cc2oc(-c3ccccc3)cc(=O)c2c1O)NCCO was 100

###

species: Danio rerio; test: Toxicity in 24 to 72 hrs post fertilized zebra fish embryo harboring fli1:EGFP; type: organism-based; details: zebrafish, in vivo
Measured Property: log10(LC100) (log10 of the value in µM)
Would you kindly interpret these values as log10 of LC100 expressed in µM?

Lab note: measured log10(LC100) of O=c1cc(-c2ccccc2)oc2cc(O)c(OCC(O)CO)c(O)c12 (configuration not stated) was 2.00

Lab note: measured log10(LC100) of O=C(O)CCC(=O)OCCOc1c(O)cc2oc(-c3ccccc3)cc(=O)c2c1O was 1.88

Lab note: measured log10(LC100) of O=C(COc1c(O)cc2oc(-c3ccccc3)cc(=O)c2c1O)N1CCC(O)CC1 was 2.00

Lab note: measured log10(LC100) of O=c1cc(-c2ccccc2)oc2cc(O)c(OCCCCCCO)c(O)c12 was 1.00

Lab note: measured log10(LC100) of O=C(COc1c(OCc2ccccc2)cc2oc(-c3ccccc3)cc(=O)c2c1O)N1CCNCC1 was 2.00

Lab note: measured log10(LC100) of O=C(COc1c(OCc2ccccc2)cc2oc(-c3ccccc3)cc(=O)c2c1O)N1CCOCC1 was 2.00

Lab note: measured log10(LC100) of O=C(O)COc1c(O)cc2oc(-c3ccccc3)cc(=O)c2c1O was 1.70

Lab note: measured log10(LC100) of O=C(COc1c(OCc2ccccc2)cc2oc(-c3ccccc3)cc(=O)c2c1O)N1CCN(CCO)CC1 was 2.30

Lab note: measured log10(LC100) of CC(C)=CCOc1cc2oc(-c3ccccc3)cc(=O)c2c(O)c1O was 2.00

###

Give measured selectivity ratio for each item. Keep answers brief.
test: Antiangiogenic index, ratio of LC100 for 24 to 72 hrs post fertilized zebra fish embryo harboring fli1:EGFP to MEC for antiangiogenic activity in 24 to 72 hrs post fertilized zebra fish embryo harboring fli1:EGFP; type: toxicity, organism-based, Danio rerio; conditions: fli1:EGFP transgenic, zebrafish, in vivo
Answer with a bare number; do not write a unit.

Lab note: measured selectivity ratio of O=C(COc1c(OCc2ccccc2)cc2oc(-c3ccccc3)cc(=O)c2c1O)N1CCNCC1 was 20

Lab note: measured selectivity ratio of O=C(COc1c(OCc2ccccc2)cc2oc(-c3ccccc3)cc(=O)c2c1O)N1CCN(c2ncccn2)CC1 was 1.3

Lab note: measured selectivity ratio of O=c1cc(-c2ccccc2)oc2cc(O)c(OCCCCO)c(O)c12 was 6

Lab note: measured selectivity ratio of O=C(O)CCC(=O)OCCOc1c(O)cc2oc(-c3ccccc3)cc(=O)c2c1O was 1.5

Lab note: measured selectivity ratio of O=c1cc(-c2ccccc2)oc2cc(O)c(OCCCCCCO)c(O)c12 was 4

Lab note: measured selectivity ratio of O=C(COc1c(OCc2ccccc2)cc2oc(-c3ccccc3)cc(=O)c2c1O)N1CCC(O)CC1 was 4

Lab note: measured selectivity ratio of CN1CCN(C(=O)COc2c(OCc3ccccc3)cc3oc(-c4ccccc4)cc(=O)c3c2O)CC1 was 5

Lab note: measured selectivity ratio of Cc1cc(C)c(/C=C2\C(=O)Nc3ccccc32)[nH]1 [SEMAXANIB] was 5
